- Test system: 786-0 renal
- METHOD: NCI-60 one-dose screen, 48 h (100 = growth as untreated, 0 = no growth, -100 = all killed)
- EXPERIMENTAL PARAMETERS: 10 µM unless noted
Compounds without any hit were thinned out: in the full panel of roughly 83,000, 20% have a hit. Active and inactive are the calls of the source. Rule for the calls: active = growth percent below 10; inactive = the rest.
QUANTITY NAME: growth

COMPOUND	growth
CC(C)c1ccc(C(=O)Nc2nc3ccc(O)c(CN(C)C)c3s2)cc1	89.9% (inactive)
OCCn1cc(-c2nc(-c3c[nH]c4ncccc34)cs2)c2ccccc21	95.1% (inactive)
CCn1cc(C(=O)O)c(=O)c2cc(F)c(N3CCN(CC(=O)Nc4ccc(S(=O)(=O)Nc5nccc(C)n5)cc4)C(C)C3)c(F)c21 (stereo unspecified)	112% (inactive)
CCOC(=O)n1cc(-c2nonc2-c2cn(C(=O)OCC)c3ccc(Br)cc23)c2ccccc21	90.6% (inactive)

Problem: Report value: growth, system: 786-0 renal, compound: "CCOC(=O)c1c(NC(=O)c2ccc(Cl)cc2)sc2c(CN(C)C)c(O)ccc12"
Result: 69.8% (inactive)

Problem: Consider the compound "Cc1cc(N2CCN(CC(=O)Nc3ccc4c(ccn4C)c3)CC2)nc(N2CCCCCC2)n1" tested on 786-0 renal; state its growth.
Result: 93.8% (inactive)
